TGI overview
Test system: MDA-MB-435
Assay: NCI tumour cell line growth inhibition, 48 h

Please review the entries below; each comes with its answer.
CS(=O)(=O)Nc1ccc(N=Cc2c(O)[nH]c3ccccc23)cc1 :: > 25 µM
CCOc1ncn(-c2ccc(NC(=S)NC34CC5CC(CC(C5)C3)C4)cc2)n1 :: > 100 µM
c1ccc(C2OCC(OC3CCCCO3)CO2)cc1 (stereo not given) :: > 100 µM

Prompt line: Answer with the recorded TGI for the compound listed here: Nc1ncnc2c1cnn2Cc1cn(COCC(O)CO)nn1 (stereo not given)
Response line: > 100 µM

Prompt line: Annotate the compound O=C(NCCc1ccccc1)c1c(O)c2ccccc2[nH]c1=O with its measured TGI.
Response line: > 100 µM

Prompt line: Specify measured TGI for COc1ccc(-c2c3c(nc4nc(SC)nc(SC)c24)CCCC3)cc1OC .
Response line: > 100 µM

Prompt line: Dear colleague, please send me the reported TGI for OCC1OC(n2cnc3c(=S)nc[nH]c32)C(O)C1O (stereo not given) when you can.
Response line: > 2500 µM

Prompt line: Fill in TGI for record FC(F)(F)c1ccc(-c2cnc(Cl)nc2NCc2cc(C(F)(F)F)cc(C(F)(F)F)c2)cc1
Response line: > 100 µM

Prompt line: Retrieve TGI measured for C/C(CC1SCCCS1)=C(/C)CC1SCCCS1 and print it.
Response line: > 100 µM

Prompt line: Give the reported value of TGI for this record: CCOP(=O)(OCC)C1=C(c2ccccc2)OC(N)=C(C#N)C1c1ccc(Cl)cc1 (stereo not given)
Response line: > 100 µM

* * *

Test system: NCI-H226 lung
Assay: NCI tumour cell line growth inhibition, 48 h
Reported TGI values for a set of compounds

Use the examples below as a reference point.
O=C(/C=C/c1ccccc1)CSc1nc2ccc(I)cc2c(=O)n1Cc1ccccc1 :: > 84.4 µM
C/C(CC1SCCCS1)=C(/C)CC1SCCCS1 :: > 100 µM
Cc1ccc(Sc2ccc(C)cc2[N+](=O)[O-])c([N+](=O)[O-])c1 :: > 100 µM
CC(C)C1COC(c2cccc(C3=N[C@@H](C(C)C)CO3)n2)=N1 (stereo partly specified) :: > 100 µM
CCOP(=O)(OCC)C1=C(c2ccccc2)OC(N)=C(C#N)C1c1ccc(Cl)cc1 (stereo unspecified) :: > 100 µM

Prompt line: Please look at this compound and report its TGI: O=C(NN1C(=O)CSC1c1ccc(C(F)(F)F)cc1)c1ccncc1 (stereo unspecified)
Response line: > 100 µM

* * *

Each item that follows carries a reported TGI.
Test system: UACC-62 melanoma
Assay: NCI tumour cell line growth inhibition, 48 h

O=C(/C=C/c1ccccc1)CSc1nc2ccc(I)cc2c(=O)n1Cc1ccccc1 :: > 100 µM
COc1cc(/C=C/C(=O)c2sc(NNC(C)=O)nc2C)ccc1O :: > 100 µM

--- query ---
Prompt line: Identify the reported TGI for the following entry. c1ccc2cc(CNCCOCCOCCNCc3ccc4ccccc4c3)ccc2c1
Response line: 3.54 µM

* * *

System: RXF 393 renal
Assay: NCI tumour cell line growth inhibition, 48 h
Parameter: TGI. Scope: all listed entries.
Give just the numeric value; µM need not be written.

Use these answered entries as a reference point.
Nc1n[nH]c2ccc([C@@H]3Nc4ccc5[nH]ncc5c4[C@H]4C5C=CC(C5)[C@@H]34)cc12 (some centres undefined) :: 0.599
CCOC(=O)c1nc(Nc2ccc(Cl)cc2)c2ccccc2n1 :: 16.8

With those in mind, consider the next molecule.
Prompt line: Answer with TGI of O=C(OCCBr)c1ccc(Cl)c([N+](=O)[O-])c1 measured for RXF 393 renal.
Response line: 29.9
